Values compiled from PubChem BioAssay.

# procedure.text: MM1S myeloma cell viability, profiling panel, resazurin fluorescence, basal, 24 h, PK04 Diversity Set (AID 1174);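 also: MM1S multiple myeloma cell line; test concentration not given here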
# test.conditions: higher = more signal, called active from +8 up or from −8 down
Consider the following compounds and their measured z-score readings.
Give a plain numeric answer without units written out.

(Q) Endpoint output: z-score of C=CCNC(=O)[C@@H]1[C@H]2C(=O)O[C@H](c3ccccc3)[C@H](c3ccccc3)N2[C@H](c2ccc(OCCO)cc2)[C@@]12C(=O)Nc1ccc(C#CCC(C(=O)OC)C(=O)OC)cc12 . Value?
(A) -6.55

(Q) # lookup: z-score of C=CC(=C)[C@H]1Oc2ccccc2S(=O)(=O)N2CCC[C@@H]12
(A) -0.205

(Q) What value of measured z-score is listed for COC(=O)[C@@]1(Cc2ccccc2)[C@H]2c3cc(C(=O)N(C)C)n(Cc4ccsc4Br)c3C[C@H]2CN1C(=O)c1ccccc1 ?
(A) -1.74

====

Below: a set of entries, each annotated with reported composite z-score.
# assayed.system: Streptavidin (Streptomyces avidinii) (UniProt P22629)
# Sequence (P22629 whole entry, looked up): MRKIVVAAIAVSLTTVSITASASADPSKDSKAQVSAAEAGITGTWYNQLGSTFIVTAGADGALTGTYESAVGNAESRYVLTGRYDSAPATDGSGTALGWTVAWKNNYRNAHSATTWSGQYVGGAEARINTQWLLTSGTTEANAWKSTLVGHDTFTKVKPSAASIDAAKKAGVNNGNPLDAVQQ
# procedure.text: streptavidin binders on small-molecule microarray, primary screen, artefact control for SMM compound annotation, biophysical, 635/667 nm fluorescence (AID 1147);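 also: signal reflects streptavidin binding to arrayed compounds as a control protein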
# test.conditions: streptavidin binding, higher = more signal
Reply: number alone, nothing else.

# example entries with known answers
(Q) # get_value(readout= composite z-score, system= Streptavidin (Streptomyces avidinii) (UniProt P22629)) for Cc1ccc(N2C(=O)c3ccccc3[C@@H](C(=O)NC3CC3)[C@@H]2c2ccc(CO)cc2)nc1
(A) -1.76

(Q) Request - read-out composite z-score | tested on Streptavidin (Streptomyces avidinii) (UniProt P22629) | molecule COc1ccccc1CN1C(=O)c2ccccc2[C@@]2(Cc3ccccc3N(CC(C)C)C2=O)[C@@H]1c1ccc(CO)cc1
(A) -0.551

(Q) Param readout= composite z-score; system= Streptavidin (Streptomyces avidinii) (UniProt P22629); entry= COc1ccc(/C=C/C=O)cc1 ; returns value.
(A) 0.166

(Q) Given the entry CC(C)=CCCC(C)=CC(O)C1C=CC2C(=O)N(C)C(=O)C2N1Nc1ccccc1 (stereo unspecified) , what composite z-score was observed with Streptavidin (Streptomyces avidinii) (UniProt P22629)?
(A) 1.87

Next:
(Q) Report composite z-score for O=C1C[C@@](C(=O)NCCN2CCOCC2)(c2ccc([N+](=O)[O-])cc2)[C@@H](c2ccc(CO)cc2)N1CC12CC3CC(CC(C3)C1)C2 tested on Streptavidin (Streptomyces avidinii) (UniProt P22629).
(A) 0.379

(Q) Record C=C[C@H](CO)NS(=O)(=O)c1ccc(Br)cc1 : what is its composite z-score with Streptavidin (Streptomyces avidinii) (UniProt P22629)?
(A) 0.257

(Q) API: value(readout=composite z-score, system=Streptavidin (Streptomyces avidinii) (UniProt P22629)) for record CC1CC/C=C\[C@H]2OC34C=CCN(Cc5ccccc5)C(=O)[C@H]3N(CCCO)C(=O)[C@@H]4C2C(=O)O1 (stereo partly specified)
(A) -0.942

====

# Test system: Human papillomavirus type 1a protein E7 (residues 44-93)
# procedure.text: HPV1a E7 fragment binders on microarrays, primary screen, biochemical, small-molecule microarray, residues 44-93, 635 nm fluorescence (AID 1108);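 also: E7 fragment applied at 1 µg/mL in TBST for 1 h at 4 C; score combines spot fluorescence with its signal to noise ratio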
# test.conditions: small-molecule microarray binding, fluorescence 635 nm; higher = more signal
assay.endpoint: composite z-score
Lab note: record just the number, no unit beside it.

(Q) Look up composite z-score: O=C(NCCN1CCOCC1)C1N=C(c2ccc(OCCCO)cc2)N(c2ccccc2)O1 (centres undefined)
(A) 0.694

(Q) Which composite z-score value belongs to CC(=O)NCCCC[C@@H]1NC(=O)[C@@H]2C[C@H](C(=O)NCCCCCNC(=O)CS)[C@H](c3cccc(OCCO)c3)N2C1=O ?
(A) -0.0596

(Q) Find the recorded composite z-score belonging to [N-]=[N+]=Nc1ccccc1[C@H]1OC(c2ccc(OCCCO)cc2)=N[C@@]1(CCS(=O)(=O)c1ccccc1)C(=O)NCC(O)CO (some centres undefined) and report it.
(A) 1.46

Further cases:
(Q) Sample C[C@H]1C2[C@H](Cc3ccccc3)NC(=O)[C@]23C(=O)N[C@H](Cc2ccccc2)C(=O)N2CCC[C@H]2C(=O)NC/C=C\C/C=C/C3[C@@H]2O[C@]12C (some centres undefined) — what was its composite z-score?
(A) -0.355
